- assay-system: human CB2 receptor (Homo sapiens (Human), UniProt P34972)
- Sequence (P34972 whole entry): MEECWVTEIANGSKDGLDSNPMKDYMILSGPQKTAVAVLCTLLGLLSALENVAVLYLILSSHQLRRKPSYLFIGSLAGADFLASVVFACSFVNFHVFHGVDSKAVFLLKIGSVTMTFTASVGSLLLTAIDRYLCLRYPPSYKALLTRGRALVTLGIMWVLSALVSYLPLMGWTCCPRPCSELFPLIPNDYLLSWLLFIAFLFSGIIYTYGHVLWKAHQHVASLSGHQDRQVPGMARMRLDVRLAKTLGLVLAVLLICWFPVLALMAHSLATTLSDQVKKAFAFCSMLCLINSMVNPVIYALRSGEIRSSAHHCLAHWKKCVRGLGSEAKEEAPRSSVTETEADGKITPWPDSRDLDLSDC
- experiment-description: cAMP assay, CHO cells expressing human CB2 receptors
- Assay type: cell-based
- condition-description: functional cAMP assay, CHO cells expressing human CB2; read-out: human CB2 EC50
- Procedure: CHO cells expressing human CB1 or CB2 receptors are seeded 17-24 hours prior to the experiment 50.000 cells per well in a black 96 well plate with flat clear bottom (Corning Costar #3904) in DMEM (Invitrogen No. 31331), lx HT supplement, with 10% fetal calf serum and incubated at 5% CO2 and 37° C. in a humidified incubator. […] The time-resolved energy transfer is measured by a TRF reader (Evotec Technologies GmbH), equipped with a ND:YAG laser as excitation source. […]
pEC50: −log10 of the molar value.
pEC50 vs 8: at or above is Criterion met, below is Criterion not met.

>  <molecule>
CC(C)(C)c1nc(N2CCC(F)(F)C2)c2cnn(Cc3nnnn3C3CC3)c2n1

>  <assigned-label>
Criterion met

$$$$
>  <molecule>
Cn1nnnc1Cn1ncc2c(N3CCC(F)(F)C3)nc(C(C)(C)C)nc21

>  <assigned-label>
Criterion met

$$$$
>  <molecule>
COc1ccc(Cn2ncc3c(N4CC[C@H](O)C4)nc(C(C)(C)C)nc32)cc1

>  <assigned-label>
Criterion met

$$$$
>  <molecule>
CC(C)(C)c1nc(N2CC[C@H](O)C2)c2cnn(Cc3ccccc3Cl)c2n1

>  <assigned-label>
Criterion met

$$$$
>  <molecule>
CC(C)(C)c1nc(N2CCC(F)(F)C2)c2cnn(Cc3ccccc3)c2n1

>  <assigned-label>
Criterion met

$$$$
>  <molecule>
FC1(F)CCN(c2nc(Cl)nc3c2cnn3Cc2ccccc2C(F)(F)F)C1

>  <assigned-label>
Criterion not met

$$$$
>  <molecule>
CC(C)(C)c1nc(N2CCC(F)(F)C2)c2cnn(Cc3ccccc3C(F)(F)F)c2n1

>  <assigned-label>
Criterion met

$$$$
>  <molecule>
Cc1nonc1CO[C@H]1CCN(c2nc(C(C)(C)C)nc3c2cnn3Cc2nonc2C)C1

>  <assigned-label>
Criterion not met

$$$$
>  <molecule>
CC(C)(C)c1nc(N2CCC(F)(F)C2)c2cnn(CC(=O)c3ccncc3)c2n1

>  <assigned-label>
Criterion met

$$$$
>  <molecule>
COC[C@H]1CCCN1c1nc(C(C)(C)C)nc2c1cnn2Cc1nonc1C

>  <assigned-label>
Criterion met

$$$$
>  <molecule>
CC(C)(C)c1nc(N2CC[C@H](O)C2)c2cnn(Cc3ccccc3C(F)(F)F)c2n1

>  <assigned-label>
Criterion met

$$$$
>  <molecule>
Cc1nnc(Cn2ncc3c(N4CCC(F)(F)C4)nc(C(C)(C)C)nc32)n1C

>  <assigned-label>
Criterion met

$$$$
>  <molecule>
CC(C)(C)c1nc(N2CCC(F)(F)C2)c2cnn(Cc3ccccc3S(C)(=O)=O)c2n1

>  <assigned-label>
Criterion met

$$$$
>  <molecule>
CC(C)(C)c1nc(N2CCC(F)(F)C2)c2cnn(C3CS(=O)(=O)C3)c2n1

>  <assigned-label>
Criterion not met

$$$$
>  <molecule>
Cc1nonc1Cn1ncc2c(N3CCC(F)(F)C3)nc(C(C)(C)C)nc21

>  <assigned-label>
Criterion met

$$$$
>  <molecule>
CC(C)(C)c1nc(N2CCC(F)(F)C2)c2cnn(C3CCOC3)c2n1 (centres unmarked)

>  <assigned-label>
Criterion met

$$$$
>  <molecule>
Cn1nncc1Cn1ncc2c(N3CC=C(F)C3)nc(C(C)(C)C)nc21

>  <assigned-label>
Criterion met

$$$$
>  <molecule>
CC(C)(C)c1nc(N2CCC(F)(F)C2)c2cnn(Cc3cccnc3Cl)c2n1

>  <assigned-label>
Criterion met

$$$$
>  <molecule>
COc1ccc(Cn2ncc3c(N4CCC(F)(F)C4)nc(C(C)(C)C)nc32)cc1

>  <assigned-label>
Criterion met

$$$$
>  <molecule>
Cn1nnnc1Cn1ncc2c(N3CC[C@H](O)C3)nc(C(C)(C)C)nc21

>  <assigned-label>
Criterion not met

$$$$
>  <molecule>
CC(C)(C)c1nc(N2CC[C@H](O)C2)c2cnn(Cc3ccccc3S(C)(=O)=O)c2n1

>  <assigned-label>
Criterion met

$$$$
>  <molecule>
CC(C)(C)c1nc(N2CCC(F)(F)C2)c2cnn(CCc3ccccc3)c2n1

>  <assigned-label>
Criterion met

$$$$
>  <molecule>
Cc1nonc1Cn1ncc2c(N3CC[C@H](O)C3)nc(C(C)(C)C)nc21

>  <assigned-label>
Criterion met

$$$$
>  <molecule>
Cc1nnc(Cn2ncc3c(N4CC=C(F)C4)nc(C(C)(C)C)nc32)n1C

>  <assigned-label>
Criterion not met

$$$$
>  <molecule>
Cc1nonc1Cn1ncc2c(N3CCC(F)(F)C3)cc(C3CC3)nc21

>  <assigned-label>
Criterion met

$$$$
>  <molecule>
CC(C)(C)c1nc(N2CC[C@H](O)C2)c2cnn(Cc3ncccc3Cl)c2n1

>  <assigned-label>
Criterion met

$$$$
>  <molecule>
COc1ccc(Cn2ncc3c(N4CCC(F)(F)C4)cc(C4CC4)nc32)cc1

>  <assigned-label>
Criterion not met

$$$$
>  <molecule>
CC(C)(C)c1nc(N2CCC(F)(F)C2)c2cnn(Cc3ccccc3Cl)c2n1

>  <assigned-label>
Criterion met

$$$$
>  <molecule>
CCOc1nc(C(C)(C)C)nc2c1cnn2Cc1ccccc1Cl

>  <assigned-label>
Criterion not met

$$$$
